Origin of the recorded values: patent US11999727B2

target entity: PRMT5 (Homo sapiens, UniProt O14744)
Construct: purchased Viva (custom protein)
Sequence (O14744 whole entry): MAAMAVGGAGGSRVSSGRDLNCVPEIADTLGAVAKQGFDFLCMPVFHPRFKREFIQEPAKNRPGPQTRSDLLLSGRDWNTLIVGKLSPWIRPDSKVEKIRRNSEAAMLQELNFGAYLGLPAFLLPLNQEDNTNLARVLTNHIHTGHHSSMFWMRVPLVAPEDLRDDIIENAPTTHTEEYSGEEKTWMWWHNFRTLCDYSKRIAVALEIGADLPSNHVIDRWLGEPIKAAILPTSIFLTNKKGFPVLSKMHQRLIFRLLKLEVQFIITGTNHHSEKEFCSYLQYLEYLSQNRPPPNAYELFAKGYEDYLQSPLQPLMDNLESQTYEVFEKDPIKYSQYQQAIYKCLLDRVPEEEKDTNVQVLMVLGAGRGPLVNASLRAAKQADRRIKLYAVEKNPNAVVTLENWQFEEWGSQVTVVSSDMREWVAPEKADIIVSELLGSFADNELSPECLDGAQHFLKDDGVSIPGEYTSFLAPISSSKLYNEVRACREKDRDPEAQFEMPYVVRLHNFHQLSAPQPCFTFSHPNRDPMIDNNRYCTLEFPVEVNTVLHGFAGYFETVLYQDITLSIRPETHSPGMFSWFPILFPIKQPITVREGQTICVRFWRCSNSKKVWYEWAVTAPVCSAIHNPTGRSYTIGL
Sequence (Q9BQA1 whole entry partner): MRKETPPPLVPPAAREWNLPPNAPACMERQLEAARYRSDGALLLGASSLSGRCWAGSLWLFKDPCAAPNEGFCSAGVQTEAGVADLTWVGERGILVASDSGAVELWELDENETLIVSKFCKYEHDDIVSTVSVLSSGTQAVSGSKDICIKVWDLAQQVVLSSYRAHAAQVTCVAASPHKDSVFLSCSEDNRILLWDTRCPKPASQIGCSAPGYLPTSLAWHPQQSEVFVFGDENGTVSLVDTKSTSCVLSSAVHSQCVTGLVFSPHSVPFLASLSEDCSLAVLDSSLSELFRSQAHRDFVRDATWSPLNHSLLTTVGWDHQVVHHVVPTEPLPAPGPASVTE
method description: PRMT5 biochemical IC50 assay with MTA as cofactor
measurement setup: PRMT5, MTA as cofactor; read-out: MTA IC50
Collected IC50 values appear next to each entry.

Check out these entries, answers already filled in.
NC(=O)c1cncc(NC(=O)C(=O)N2CC[C@@]3(O)CCCC[C@H]3C2)c1 (racemic): 50 to 500 nM
NC(=O)c1cncc(NC(=O)C(=O)N2CCCC3(C2)OC[C@@H]2C[C@@H]23)c1 (mixture of isomers): 50 to 500 nM
C[C@H]1CC[C@H](c2ccc(F)cc2)N(C(=O)C(=O)Nc2cnc(N)c(OC(F)F)c2)C1: < 50 nM
NC(=O)c1cncc(NC(=O)C(=O)N2CCCC[C@@H]2c2ccccc2)c1 (single isomer, unassigned): < 50 nM
CCc1cc(NC(=O)C(=O)N2C[C@H](C)CC[C@H]2c2ccc(N3CCC4(CCCN(C)C4)CC3)cc2)cnc1N (single isomer, unassigned): 50 to 500 nM

Q: Data request, read-out IC50, for CC(=O)N[C@H]1C[C@H]([C@H]2CC[C@@H](C)CN2C(=O)C(=O)Nc2cnc(N)c(C)c2)C1 (single isomer, unassigned)
Ans: 50 to 500 nM

Q: Please report the recorded IC50 for Cc1cc(NC(=O)C(=O)N2CCCCC2c2ccncc2)cnc1N (racemic) .
Ans: < 50 nM

Q: Requested read-out: IC50. Entry: Cc1cc(NC(=O)C(=O)N2C[C@@H](C)[C@@H](OC(C)C)C[C@@H]2c2ccccc2)cnc1N (single isomer, unassigned)
Ans: > 500 nM

Q: Query: IC50; subject: CNC(=O)c1ccc([C@H]2CC[C@H](C)CN2C(=O)C(=O)Nc2cncc(C(N)=O)c2)s1 (single isomer, unassigned)
Ans: > 500 nM

Q: Looking for the measured IC50 of C[C@H]1CC[C@H](c2ccc3c(c2)CCN(C)C3)N(C(=O)C(=O)Nc2cnc(N)c(C3CC3)c2)C1 , can you help?
Ans: < 50 nM

Q: What IC50 value was documented for this molecule, CC(=O)N[C@H]1CCN(C(=O)C(=O)Nc2cnc(N)c(C)c2)[C@@H](c2ccccc2)C1 (racemic) ?
Ans: 50 to 500 nM

###

Measured IC50, listed per entry.
target entity: PRMT5 (Homo sapiens, UniProt O14744)
Construct: purchased Viva (custom protein)
method description: PRMT5 biochemical IC50 assay with SAM as cofactor
measurement setup: PRMT5, SAM as cofactor; read-out: SAM IC50

Previously resolved entries follow.
COc1ncc(NC(=O)C(=O)N2C[C@H](C)CC[C@H]2c2ccc3[nH]ncc3c2)cc1C(N)=O (single isomer, unassigned): > 0.5 µM
C[C@H]1CN(C(=O)C(=O)Nc2cncc(C(N)=O)c2)[C@H](c2ccccc2)CC1(F)F (single isomer, unassigned): 0.05 to 0.5 µM
CCc1cc(NC(=O)C(=O)N2C[C@@H](C)CC[C@@H]2c2cccc(OCC3CCN(C)CC3)c2)cnc1N: < 0.05 µM

Q: Fill in the recorded IC50 for this compound, with PRMT5 (Homo sapiens, UniProt O14744) as test system: CNc1cccc([C@@H]2CC[C@@H](C)CN2C(=O)C(=O)Nc2cncc(C(N)=O)c2)c1 (single isomer, unassigned)
Ans: 0.05 to 0.5 µM

Q: # get_value(readout= IC50, system= PRMT5 (Homo sapiens, UniProt O14744)) for Cc1cc(NC(=O)C(=O)N2C[C@H](C)CC[C@H]2c2cccc3[nH]cnc23)cnc1N (single isomer, unassigned)
Ans: 0.05 to 0.5 µM

Q: Form entry - test system: PRMT5 (Homo sapiens, UniProt O14744); read-out: IC50; compound: CCc1cc(NC(=O)C(=O)N2C[C@@H](C)CC[C@@H]2c2ccc3sc(C45CCN(CC4)C5)nc3c2)cnc1N
Ans: 0.05 to 0.5 µM

Q: What is its IC50 for PRMT5 (Homo sapiens, UniProt O14744)? Entry: C[C@@H]1CC[C@@H](c2cccc(Cl)c2)N(C(=O)C(=O)Nc2cncc(C(N)=O)c2)C1 (single isomer, unassigned) [Compound 441]
Ans: > 0.5 µM

Q: Item Cc1cc(NC(=O)C(=O)N2C[C@H](C)CC[C@H]2c2ccc3[nH]c(N)nc3c2)cnc1N (racemic) with PRMT5 (Homo sapiens, UniProt O14744) - IC50?
Ans: 0.05 to 0.5 µM

Q: IC50 of C[C@@H]1CC[C@@H](c2ccc3sccc3c2)N(C(=O)C(=O)Nc2cncc(C(N)=O)c2)C1 (single isomer, unassigned) [Compound 586] on PRMT5 (Homo sapiens, UniProt O14744)?
Ans: > 0.5 µM

Q: API: value(readout= IC50, system= PRMT5 (Homo sapiens, UniProt O14744), query= Cc1cc(NC(=O)C(=O)N2C[C@H](C)CC[C@H]2c2ccc(F)c(F)c2)cnc1N (single isomer, unassigned) )
Ans: 0.05 to 0.5 µM

###

target entity: PRMT5 (Homo sapiens, UniProt O14744)
Construct: purchased Viva (custom protein)
method description: PRMT5 biochemical IC50 assay with SAM as cofactor
measurement setup: PRMT5, SAM as cofactor; read-out: SAM IC50
experimental endpoint: IC50

Sample records with IC50:
COc1ncc(NC(=O)C(=O)N2C[C@H](C)CC[C@H]2c2ccc(NS(C)(=O)=O)cc2)cc1C(N)=O (single isomer, unassigned): 50 to 500 nM
Cc1cc(NC(=O)C(=O)N2C[C@@H](C)[C@H](OC(C)C)C[C@@H]2c2ccccc2)cnc1N (single isomer, unassigned): > 500 nM
CCc1cc(NC(=O)C(=O)N2C[C@H](C)CC[C@H]2c2ccn(-c3cc[nH]n3)n2)cnc1N (single isomer, unassigned): 50 to 500 nM
C[C@H]1CC[C@H](c2cc(F)c(F)c(Cl)c2)N(C(=O)C(=O)Nc2cncc(C(N)=O)c2)C1 (single isomer, unassigned): > 500 nM
C[C@H]1CC[C@H](c2cccs2)N(C(=O)C(=O)Nc2cncc(C(N)=O)c2)C1 (single isomer, unassigned): 50 to 500 nM
Cc1cc(NC(=O)C(=O)N2C[C@H]3CC[C@H](C3)[C@@H]2c2ccccc2)cnc1N (single isomer, unassigned): > 500 nM

Q: Entry Cc1cc(NC(=O)C(=O)N2C[C@H](C)CC[C@@H]2C2CCNC(=O)C2)cnc1N (mixture of isomers) , system PRMT5 (Homo sapiens, UniProt O14744): what IC50 was measured?
Ans: 50 to 500 nM

Q: Param readout = IC50; param system = PRMT5 (Homo sapiens, UniProt O14744); param query = COc1ncc(NC(=O)C(=O)N2C[C@H](C)CC[C@H]2c2ccc(O)cc2)cc1C(N)=O (single isomer, unassigned) ; response: value
Ans: > 500 nM

Q: Can you look up IC50 on PRMT5 (Homo sapiens, UniProt O14744) for CCc1cc(NC(=O)C(=O)N2C[C@@H](C)CC[C@@H]2c2ccc3nn(C4CN(C)C4)cc3c2)cnc1N (racemic) ?
Ans: 50 to 500 nM

Q: Form field: IC50 recorded for CCc1cc(NC(=O)C(=O)N2C[C@@H](C)CC[C@@H]2c2ccc(OCC3CCN(C)CC3)cc2)cnc1N with PRMT5 (Homo sapiens, UniProt O14744) (enter value)
Ans: 50 to 500 nM

Q: Could you share what IC50 was measured for Cc1cc(NC(=O)C(=O)N2C[C@H](C)CC[C@H]2c2cn[nH]c2)cnc1N (single isomer, unassigned) , tested on PRMT5 (Homo sapiens, UniProt O14744)?
Ans: > 500 nM

Q: State its IC50 on PRMT5 (Homo sapiens, UniProt O14744): CO[C@@H]1C[C@@H](c2ccc3scnc3c2)N(C(=O)C(=O)Nc2cncc(C(N)=O)c2)C[C@@H]1C (single isomer, unassigned)
Ans: 50 to 500 nM

###

target entity: PRMT5 (Homo sapiens, UniProt O14744)
Construct: purchased Viva (custom protein)
method description: PRMT5 biochemical IC50 assay with MTA as cofactor
measurement setup: PRMT5, MTA as cofactor; read-out: MTA IC50
pIC50: −log10 of the molar value.
experimental endpoint: pIC50

COc1ncc(NC(=O)C(=O)N2C[C@@H](C)CC[C@@H]2c2cccc(OCCN(C)C)c2)cc1C(N)=O: > 7.30
Cc1cc(NC(=O)C(=O)N2CCCCC2C23CC(C(F)(F)F)(C2)C3)cnc1N (stereo not shown): 6.30 to 7.30
CCc1cc(NC(=O)C(=O)N2[C@@H](C)CCC[C@H]2c2ccc3sc(C4CCN(C)CC4)nc3c2)cnc1N (single isomer, unassigned): > 7.30
CNc1ccc([C@@H]2CC[C@@H](C)CN2C(=O)C(=O)Nc2cnc(OC)c(C(N)=O)c2)cn1 (single isomer, unassigned): < 6.30

Q: Data request, read-out pIC50, for Cc1cc(NC(=O)C(=O)N2C[C@@H](C)CC[C@@H]2c2cc(F)c(F)c(F)c2)cnc1N (single isomer, unassigned)
Ans: < 6.30

Q: So what's the measured pIC50 for this one? NC(=O)c1cncc(NC(=O)C(=O)N2CCCCC2c2ccccc2)c1N (stereo not shown)
Ans: 6.30 to 7.30

Q: Query: pIC50; subject: Cc1cc(C)n(-c2ccc([C@@H]3CC[C@@H](C)CN3C(=O)C(=O)Nc3cncc(C(N)=O)c3)cc2)n1 (racemic)
Ans: 6.30 to 7.30

Q: I'd like to know its pIC50. The molecule in question is CNc1ccc([C@@H]2CC(F)(F)[C@@H](C)CN2C(=O)C(=O)Nc2cnc(N)c(C)c2)cn1 (racemic)
Ans: 6.30 to 7.30

Q: Endpoint output: pIC50 of Cc1cc(NC(=O)C(=O)N2C[C@@H](C)CC[C@@H]2c2ccc3sc(C4CCN(C5CC5)CC4)nc3c2)cnc1N . Value?
Ans: > 7.30

Q: Which pIC50 is reported for this molecule? CC(=O)Oc1ccc([C@H]2CC[C@H](C)CN2C(=O)C(=O)Nc2cnc(N)c(C)c2)cc1 (single isomer, unassigned)
Ans: < 6.30

Q: Consider the molecule Cc1cc(NC(=O)C(=O)N2C[C@@H](C)CC[C@@H]2c2cccc(O)c2)cnc1N (racemic) and give its measured pIC50.
Ans: > 7.30

Q: Which measured pIC50 value corresponds to Cc1cc(NC(=O)C(=O)N2C[C@@H](C)C(F)(F)C[C@@H]2c2ccccc2)cnc1N (single isomer, unassigned) ?
Ans: < 6.30

Q: Tell me the measured pIC50 of CCc1cc(NC(=O)C(=O)N2C[C@@H](C)CC[C@@H]2c2ccc(N3CCN(CC)CC3)c(C)c2)cnc1N (racemic) , please.
Ans: > 7.30
